Target: CD22 (Homo sapiens, UniProt P20273)
Construct: The soluble CD22 protein was expressed in the CHO-Lec1 cell line; made in house; host or cells: CHO-Lec1
Test: ELISA-based inhibition assay: inhibition of binding of soluble CD22 to immobilized IgM
Conditions: Table III; relative to reference compound 17 co-tested in the same assay (rIP = 1)
Reported Metric: rIP
Give the value as a plain number.

The cases that follow already have their rIP on record.
| Compound | Reported Metric | Result Number |
| --- | --- | --- |
| CC(=O)N[C@H]1[C@H]([C@H](O)[C@H](O)CNC(=O)c2ccc(-c3ccccc3)cc2)O[C@@](OCCCCCC(=O)[O-])(C(=O)[O-])C[C@@H]1NC(=O)c1ccc(Cl)cc1.[Na+].[Na+] | rIP | 3.4 |
| CC(=O)N[C@H]1[C@H]([C@H](O)[C@H](O)CNC(=O)c2ccc(-c3ccccc3)cc2)O[C@@](OCCCCCC(=O)[O-])(C(=O)[O-])C[C@@H]1NC(=O)CC1NC(=O)NC1=O.[Na+].[Na+] (stereo partly drawn) | rIP | 3.4 |
| CC(=O)N[C@H]1[C@H]([C@H](O)[C@H](O)CNC(=O)c2ccc(-c3ccccc3)cc2)O[C@@](OCCCCCC(=O)[O-])(C(=O)[O-])C[C@@H]1NC(=O)c1cnccn1.[Na+].[Na+] | rIP | 2.7 |

Asked: Quick one: give measured rIP for CC(=O)N[C@H]1[C@H]([C@H](O)[C@H](O)CNC(=O)c2ccc(-c3ccccc3)cc2)O[C@@](OCCCCCC(=O)[O-])(C(=O)[O-])C[C@@H]1NC(=O)c1ccc(C(F)(F)F)cc1.[Na+].[Na+]
Given back: 1.2

Asked: Quick one: give measured rIP for CC(=O)N[C@H]1[C@H]([C@H](O)[C@H](O)CNC(=O)c2ccc(-c3ccccc3)cc2)O[C@@](OCCCCCC(=O)[O-])(C(=O)[O-])C[C@@H]1NC(=O)OCc1ccccc1.[Na+].[Na+]
Given back: 1.3

Asked: Quick one: give measured rIP for CC(=O)N[C@H]1[C@H]([C@H](O)[C@H](O)CNC(=O)c2ccc(-c3ccccc3)cc2)O[C@@](OCCCCCC(=O)[O-])(C(=O)[O-])C[C@@H]1NC(=O)c1cccs1.[Na+].[Na+]
Given back: 3.6

Asked: Quick one: give measured rIP for CC(=O)N[C@H]1[C@H]([C@H](O)[C@H](O)CNC(=O)c2ccc(-c3ccccc3)cc2)O[C@@](OCCCCCC(=O)[O-])(C(=O)[O-])C[C@@H]1NC(=O)c1ccc(C)cc1.[Na+].[Na+]
Given back: 0.24

Asked: Quick one: give measured rIP for COc1ccc(C(=O)N[C@H]2C[C@](OCCCCCC(=O)[O-])(C(=O)[O-])O[C@@H]([C@H](O)[C@H](O)CNC(=O)c3ccc(-c4ccccc4)cc3)[C@@H]2NC(C)=O)cc1.[Na+].[Na+]
Given back: 0.27

Asked: Quick one: give measured rIP for CC(=O)N[C@H]1[C@H]([C@H](O)[C@H](O)CNC(=O)c2ccc(-c3ccccc3)cc2)O[C@@](OCCCCCC(=O)[O-])(C(=O)[O-])C[C@@H]1NC(=O)c1ccco1.[Na+].[Na+]
Given back: 6.1

###

Biological target: CD22 (Homo sapiens, UniProt P20273)
Construct: The soluble CD22 protein was expressed in the CHO-Lec1 cell line; made in house; host or cells: CHO-Lec1
Assay: ELISA-based inhibition assay: inhibition of binding of soluble CD22 to immobilized IgM
Conditions: Table I; relative to reference BPCNeu5Ac (rIP = 1)
Decision: rIP (relative inhibitory potency) >= 2000 yields true (1), all other cases yield false (0).

| Molecule | Class Assignment |
| --- | --- |
| CC(=O)N[C@H]1[C@H]([C@H](O)[C@H](O)CNC(=O)c2ccc(-c3ccccc3)cc2)O[C@@](OCCCCCC(=O)[O-])(C(=O)[O-])C[C@@H]1NS(=O)(=O)[O-].[Na+].[Na+].[Na+] | false (0) |
| CC(=O)N[C@H]1[C@H]([C@H](O)[C@H](O)CNC(=O)c2ccc(-c3ccccc3)cc2)O[C@@](OCCCSCCC(=O)[O-])(C(=O)[O-])C[C@@H]1OS(=O)(=O)[O-].[Na+].[Na+].[Na+] | true (1) |
| CC(=O)N[C@H]1[C@H]([C@H](O)[C@H](O)CNC(=O)c2ccc(-c3ccc(F)cc3)cc2)O[C@@](OCCCCCC(=O)[O-])(C(=O)[O-])C[C@@H]1NS(=O)(=O)[O-].[Na+].[Na+].[Na+] | false (0) |
| CO[C@]1(C(=O)[O-])C[C@H](O)[C@@H](NC(C)=O)[C@H]([C@H](O)[C@H](O)CNC(=O)c2ccc(-c3ccccc3)cc2)O1.[Na+] [BPC Neu5 Ac, reference compound] | false (0) |

Next up:
Asked: Evaluate CCC(=O)N[C@H]1C[C@](OCCCCCC(=O)[O-])(C(=O)[O-])O[C@@H]([C@H](O)[C@H](O)CNC(=O)c2ccc(-c3ccccc3)cc2)[C@@H]1NC(C)=O.[Na+].[Na+] : rIP (relative inhibitory potency) at minimum 2000?
Given back: false (0)

###

Target: CD22 (Homo sapiens, UniProt P20273)
Construct: The soluble CD22 protein was expressed in the CHO-Lec1 cell line; made in house; host or cells: CHO-Lec1
Test: ELISA-based inhibition assay: inhibition of binding of soluble CD22 to immobilized IgM
Details: Table II; relative to reference compound 10 co-tested in the same assay (rIP = 1)
Decision: rIP >= 0.3 yields met, all other cases yield not met.

Asked: Evaluate CC(=O)N[C@@H]1[C@@H](NS(=O)(=O)c2cccc3c(N(C)C)cccc23)[C@H](O)[C@](OCCCCCC(=O)[O-])(C(=O)[O-])O[C@H]1[C@H](O)[C@H](O)CNC(=O)c1ccc(-c2ccccc2)cc1.[Na+].[Na+] : rIP at minimum 0.3?
Given back: not met

Asked: Evaluate CC(=O)N[C@@H]1[C@@H](NC(=O)CCl)[C@H](O)[C@](OCCCCCC(=O)[O-])(C(=O)[O-])O[C@H]1[C@H](O)[C@H](O)CNC(=O)c1ccc(-c2ccccc2)cc1.[Na+].[Na+] : rIP at minimum 0.3?
Given back: met

Asked: Evaluate CC(=O)N[C@@H]1[C@@H](NC(=O)C(C)(C)C)[C@H](O)[C@](OCCCCCC(=O)[O-])(C(=O)[O-])O[C@H]1[C@H](O)[C@H](O)CNC(=O)c1ccc(-c2ccccc2)cc1.[Na+].[Na+] : rIP at minimum 0.3?
Given back: met

Asked: Evaluate CC(=O)N[C@@H]1[C@@H](NC(=O)C(C)C)[C@H](O)[C@](OCCCCCC(=O)[O-])(C(=O)[O-])O[C@H]1[C@H](O)[C@H](O)CNC(=O)c1ccc(-c2ccccc2)cc1.[Na+].[Na+] : rIP at minimum 0.3?
Given back: met

Asked: Evaluate CC(=O)N[C@@H]1[C@@H](NC(C)=O)[C@H](O)[C@](OCCCCCC(=O)[O-])(C(=O)[O-])O[C@H]1[C@H](O)[C@H](O)CNC(=O)c1ccc(-c2ccccc2)cc1.[Na+].[Na+] : rIP at minimum 0.3?
Given back: met

###

Attribute: log10(IC50)
Biological target: CD22 (Homo sapiens)
Sequence (P20273 20-687 limits assumed): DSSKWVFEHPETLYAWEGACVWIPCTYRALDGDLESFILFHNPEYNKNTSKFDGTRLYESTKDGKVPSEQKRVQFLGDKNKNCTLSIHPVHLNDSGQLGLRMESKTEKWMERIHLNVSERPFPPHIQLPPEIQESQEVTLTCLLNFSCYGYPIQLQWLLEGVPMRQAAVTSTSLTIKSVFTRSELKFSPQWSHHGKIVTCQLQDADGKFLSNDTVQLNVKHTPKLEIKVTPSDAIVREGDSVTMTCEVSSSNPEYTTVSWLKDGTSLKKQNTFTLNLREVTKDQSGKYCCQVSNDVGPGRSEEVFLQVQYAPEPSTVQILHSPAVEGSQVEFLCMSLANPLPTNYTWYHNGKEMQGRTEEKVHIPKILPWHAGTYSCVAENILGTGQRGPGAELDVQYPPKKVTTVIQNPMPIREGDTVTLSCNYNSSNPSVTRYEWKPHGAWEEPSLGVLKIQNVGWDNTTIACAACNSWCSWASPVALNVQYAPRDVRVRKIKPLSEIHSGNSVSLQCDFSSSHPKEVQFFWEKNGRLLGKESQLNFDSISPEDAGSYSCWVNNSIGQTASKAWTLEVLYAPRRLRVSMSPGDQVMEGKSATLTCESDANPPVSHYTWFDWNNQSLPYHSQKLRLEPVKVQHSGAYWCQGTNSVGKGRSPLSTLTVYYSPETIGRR
Please note: log10 values; quantity IC50; unit nM.

| Compound | log10(IC50) |
| --- | --- |
| CC(=O)N[C@H]1[C@H]([C@H](O)[C@H](O)CNC(=O)c2ccc(-c3ccccc3)cc2)O[C@@](OCCCCCC(=O)[O-])(C(=O)[O-])C[C@@H]1NS(=O)(=O)[O-].[Na+].[Na+].[Na+] [Compound 15] | 0.51 |
| CC(=O)N[C@H]1[C@H]([C@H](O)[C@H](O)CNC(=O)c2ccc(-c3ccc(F)cc3)cc2)O[C@@](OCCCCCC(=O)[O-])(C(=O)[O-])C[C@@H]1NS(=O)(=O)[O-].[Na+].[Na+].[Na+] [Compound 37] | 1.18 |
| CO[C@]1(C(=O)[O-])C[C@H](O)[C@@H](NC(C)=O)[C@H]([C@H](O)[C@H](O)CNC(=O)c2ccc(-c3ccccc3)cc2)O1.[Na+] [BPC Neu5 Ac, reference compound] | 3.79 |

Asked: Quick one: give measured log10(IC50) for CCC(=O)N[C@H]1C[C@](OCCCCCC(=O)[O-])(C(=O)[O-])O[C@@H]([C@H](O)[C@H](O)CNC(=O)c2ccc(-c3ccccc3)cc2)[C@@H]1NC(C)=O.[Na+].[Na+] [Compound 17]
Given back: 1.08

Asked: Quick one: give measured log10(IC50) for CCC(=O)N[C@@H]1[C@@H](NC(C)=O)[C@H]([C@H](O)[C@H](O)CNC(=O)c2ccc(-c3ccccc3)cc2)O[C@@](OCCCCCC(=O)O)(C(=O)O)[C@H]1O [Compound 10]
Given back: 0.78

Asked: Quick one: give measured log10(IC50) for CC(=O)N[C@H]1[C@H]([C@H](O)[C@H](O)CNC(=O)c2ccc(-c3ccccc3)cc2)O[C@@](OCCCSCCC(=O)[O-])(C(=O)[O-])C[C@@H]1OS(=O)(=O)[O-].[Na+].[Na+].[Na+] [Compound 20]
Given back: 0.30
